tested on: rats; type: in vivo, rat; details: rats of the MAP/HR figures, 2×ED50, tail vein; same value in min
I'd appreciate it if you could supply recovery time of the test animals' righting reflex values for the items below.
Respond with the bare value in min.

Sample C=C=CC1(OC(=O)c2c(F)ncn2[C@H](C)c2ccccc2)CCC1 [Compound E64] — what was its recovery time of the test animals' righting reflex?
2.48

Sample C[C@H](c1ccccc1)n1cncc1C(=O)OCC1CC(F)(F)C1 [Compound A12] — what was its recovery time of the test animals' righting reflex?
4.23

Sample COCC1(CSC(=O)c2cncn2[C@H](C)c2ccccc2)CCC1 [Compound A28] — what was its recovery time of the test animals' righting reflex?
7.25

Sample C=CC#CC(C)OC(=O)c1c(Cl)ncn1[C@H](C)c1ccccc1 (stereo partly shown) [Compound E121] — what was its recovery time of the test animals' righting reflex?
3.07

====

// rats Approximate therapeutic index records

# get_value(readout= Approximate therapeutic index, system= rats) for "CSCCSC(=O)c1cncn1[C@H](C)c1ccccc1"
>11

# get_value(readout= Approximate therapeutic index, system= rats) for "CSCOC(=O)c1cncn1[C@H](C)c1ccccc1"
>11

# get_value(readout= Approximate therapeutic index, system= rats) for "CC(=O)C1(OC(=O)c2cncn2[C@H](C)c2ccccc2)COC1"
>14

# get_value(readout= Approximate therapeutic index, system= rats) for "CCCC(C)(C)OC(=O)c1c(F)ncn1[C@H](C)c1ccccc1"
>15

# get_value(readout= Approximate therapeutic index, system= rats) for "CCC1(COC(=O)c2cncn2[C@H](C)c2ccccc2)CC1"
>13

# get_value(readout= Approximate therapeutic index, system= rats) for COCC1(COC(=O)c2c(F)ncn2[C@H](C)c2ccccc2)CCC1 [Compound E2]
>25

# get_value(readout= Approximate therapeutic index, system= rats) for "C[C@H](c1ccccc1)n1cnc(F)c1C(=O)OC1CCC1"
>48

# get_value(readout= Approximate therapeutic index, system= rats) for "C=C=CC1(OC(=O)c2c(F)ncn2[C@H](C)c2ccccc2)CCC1"
>40

# get_value(readout= Approximate therapeutic index, system= rats) for "C=CC1(OC(=O)c2cncn2[C@H](C)c2ccccc2)COC1"
>10

# get_value(readout= Approximate therapeutic index, system= rats) for CC#CC1(OC(=O)c2cncn2[C@H](C)c2ccccc2)CCSC1 (stereo partly shown)
>11

# get_value(readout= Approximate therapeutic index, system= rats) for "C=C=CC1(OC(=O)c2c(F)ncn2[C@H](C)c2ccccc2)COC1"
>30

# get_value(readout= Approximate therapeutic index, system= rats) for "C#CC1(OC(=O)c2cncn2[C@H](C)c2ccccc2)CSC1"
>10

# get_value(readout= Approximate therapeutic index, system= rats) for "C#CC1(OC(=O)c2c(Cl)nc(Cl)n2[C@H](C)c2ccccc2)COC1"
>12

# get_value(readout= Approximate therapeutic index, system= rats) for "CCCC(CCC)OC(=O)c1cncn1[C@H](C)c1ccccc1"
>16

# get_value(readout= Approximate therapeutic index, system= rats) for "C[C@H](c1ccccc1)n1c(Cl)nc(Cl)c1C(=O)OC1CSC1"
>12

# get_value(readout= Approximate therapeutic index, system= rats) for "CCC(C)(C)OC(=O)c1cncn1[C@H](C)c1ccccc1"
>20

====

// rats Approximate therapeutic index records

Sample "C=CC#CC(C)(C)OC(=O)c1c(F)ncn1[C@H](C)c1ccccc1" — what was its Approximate therapeutic index?
>12

Sample "CCOC(=O)c1c(Cl)ncn1[C@H](C)c1ccccc1" — what was its Approximate therapeutic index?
>30

Sample "C[C@H](c1ccccc1)n1c(Cl)nc(Cl)c1C(=O)OC1COC1" — what was its Approximate therapeutic index?
>14

Sample "C#CC1(COC(=O)c2cncn2[C@H](C)c2ccccc2)CCC1" — what was its Approximate therapeutic index?
>12

====

tested on: rats; assay: Pharmacological characteristics at equivalent doses (2×ED50) in rats; settings: 2×ED50, tail vein, animals affected/animals
readout: Adverse reactions: Tremor (incidence)

Sample "CCC1(COC(=O)c2cncn2[C@H](C)c2ccccc2)CC1" — what was its Adverse reactions: Tremor (incidence)?
5/8

Sample C[C@H](c1ccccc1)n1cncc1C(=O)OC1(CC2CO2)COC1 (some centres unmarked) — what was its Adverse reactions: Tremor (incidence)?
4/8

Sample CC(OC(=O)c1cncn1[C@H](C)c1ccccc1)C1CC1 (some centres unmarked) — what was its Adverse reactions: Tremor (incidence)?
2/8

====

I'd appreciate it if you could supply Onset time values for the items below.
tested on: rats; experiment: Pharmacological characteristics at equivalent doses (2×ED50) in rats; conditions: 2×ED50, tail vein, time of LORR
Respond with the bare value in min.

Sample "C=C=CC1(OC(=O)c2c(F)ncn2[C@H](C)c2ccccc2)CCC1" — what was its Onset time?
0.31

Sample "CC#CCOC(=O)c1c(F)ncn1[C@H](C)c1ccccc1" — what was its Onset time?
0.32

Sample "CCCCC(CCCC)OC(=O)c1cncn1[C@H](C)c1ccccc1" — what was its Onset time?
0.72

Sample CC(OC(=O)c1cncn1[C@H](C)c1ccccc1)C1CO1 (some centres unmarked) — what was its Onset time?
0.28

Sample "C=C=CC1(OC(=O)c2cncn2[C@H](C)c2ccccc2)CCCCC1" — what was its Onset time?
0.22

====

test system: rats; experiment: Pharmacological characteristics at equivalent doses (2×ED50) in rats; details: 2×ED50, tail vein, DMSO solution (DMSO alone 10/10)
readout: Adverse reactions: Red urine (incidence)

Worked set:
Sample "CSCCOC(=O)c1cncn1[C@H](C)c1ccccc1" — what was its Adverse reactions: Red urine (incidence)?
Red urine (8/8)

Sample "CCC1(COC(=O)c2cncn2[C@H](C)c2ccccc2)CC1" — what was its Adverse reactions: Red urine (incidence)?
8/8

Sample "C=C=CC1(SC(=O)c2c(F)ncn2[C@H](C)c2ccccc2)CSC1" — what was its Adverse reactions: Red urine (incidence)?
urine (8/8)

Sample CC(OC(=O)c1cncn1[C@H](C)c1ccccc1)C1CC1 (some centres unmarked) — what was its Adverse reactions: Red urine (incidence)?
8/8

Next:
Sample "C=C=CC1(OC(=O)c2c(F)ncn2[C@H](C)c2ccccc2)CCC1" — what was its Adverse reactions: Red urine (incidence)?
urine (8/8)

====

readout: Minimal lethal dose

# get_value(readout= Minimal lethal dose, system= rats) for "[2H]C#CC(C)(C)OC(=O)c1cncn1[C@H](C)c1ccccc1"
>6 mg/kg

# get_value(readout= Minimal lethal dose, system= rats) for "COCC1(COC(=O)c2cncn2[C@H](C)c2ccccc2)CCC1"
>1 mg/kg

# get_value(readout= Minimal lethal dose, system= rats) for CC#CC(C)OC(=O)c1c(Cl)ncn1[C@H](C)c1ccccc1 (stereo partly drawn)
>10 mg/kg

# get_value(readout= Minimal lethal dose, system= rats) for "C=CC(CC)(CC)OC(=O)c1cncn1[C@H](C)c1ccccc1"
>7 mg/kg

# get_value(readout= Minimal lethal dose, system= rats) for "CC#CCOC(=O)c1c(F)ncn1[C@H](C)c1ccccc1"
>4 mg/kg

# get_value(readout= Minimal lethal dose, system= rats) for "CCC(C)(C)OC(=O)c1c(F)ncn1[C@H](C)c1ccccc1"
>6 mg/kg

# get_value(readout= Minimal lethal dose, system= rats) for "CCC(=O)C1(OC(=O)c2cncn2[C@H](C)c2ccccc2)CC1"
>10 mg/kg

# get_value(readout= Minimal lethal dose, system= rats) for COC(=O)C1(OC(=O)c2cncn2[C@H](C)c2ccccc2)CC1 [CPMM, cyclopropyl methoxycarbonyl methylate, reference compound]
>7.8 mg/kg

# get_value(readout= Minimal lethal dose, system= rats) for "C=CC1(OC(=O)c2cncn2[C@H](C)c2ccccc2)COC1"
>6 mg/kg

# get_value(readout= Minimal lethal dose, system= rats) for "CC#CC(C)(C)OC(=O)c1cncn1[C@H](C)c1ccccc1"
>9 mg/kg

# get_value(readout= Minimal lethal dose, system= rats) for "C=CC(C)(C)OC(=O)c1c(F)ncn1[C@H](C)c1ccccc1"
>4 mg/kg

# get_value(readout= Minimal lethal dose, system= rats) for CC(OC(=O)c1cncn1[C@H](C)c1ccccc1)C1CC1 (stereo partly drawn)
>10 mg/kg

====

I'd appreciate it if you could supply Minimal lethal dose values for the items below.

# get_value(readout= Minimal lethal dose, system= rats) for "C[C@H](c1ccccc1)n1cncc1C(=O)OC1(C)COC1"
>10 mg/kg

# get_value(readout= Minimal lethal dose, system= rats) for "CC#CC1(OC(=O)c2cncn2[C@H](C)c2ccccc2)COC1"
>9 mg/kg

# get_value(readout= Minimal lethal dose, system= rats) for "CCCC(CCC)OC(=O)c1cncn1[C@H](C)c1ccccc1"
>7 mg/kg

# get_value(readout= Minimal lethal dose, system= rats) for C#CC1(OC(=O)c2cncn2[C@H](C)c2ccccc2)CCC1 [Compound D1]
>6 mg/kg

# get_value(readout= Minimal lethal dose, system= rats) for COCC1(COC(=O)c2c(F)ncn2[C@H](C)c2ccccc2)CCC1 [Compound E2]
>5 mg/kg

====

I'd appreciate it if you could supply Minimal lethal dose values for the items below.

# get_value(readout= Minimal lethal dose, system= rats) for "C[C@H](c1ccccc1)n1cnc(F)c1C(=O)OC1CC1"
>2 mg/kg

# get_value(readout= Minimal lethal dose, system= rats) for "C#CC1(COC(=O)c2cncn2[C@H](C)c2ccccc2)CCC1"
>6 mg/kg

# get_value(readout= Minimal lethal dose, system= rats) for "CC#CCOC(=O)c1cncn1[C@H](C)c1ccccc1"
>3 mg/kg
